Source of measurements: ChEMBL document CHEMBL4765261

System: MDA-MB-231
method_description: Anticancer activity against human MDA-MB-231 cells assessed as inhibition of cell proliferation measured after 72 hrs by MTT assay
Format: functional, cell-based
experimental_context: MDA-MB-231, 72 h
measured_endpoint: pIC50
FYI, pIC50 means -log10 of a concentration in mol per litre.

>>> df
                             record_smiles  assay_target  observed_value
0  COc1ccc2sc3c(NCCCN)nc4ccccc4c3c(=O)c2c1    MDA-MB-231            5.35

[Q] Please look at this molecule and report its pIC50: NCCCNc1nc2ccccc2c2c(=O)c3cc(F)ccc3sc12
[A] 5.54

[Q] Please look at this molecule and report its pIC50: NCCCNc1nc2ccccc2c2c(=O)c3cccc(Cl)c3sc12
[A] 5.66

----------
Catalogue of inhibition readings, one per entry.
assay_target: DNA topoisomerase 1 (Homo sapiens)
Sequence (whole entry): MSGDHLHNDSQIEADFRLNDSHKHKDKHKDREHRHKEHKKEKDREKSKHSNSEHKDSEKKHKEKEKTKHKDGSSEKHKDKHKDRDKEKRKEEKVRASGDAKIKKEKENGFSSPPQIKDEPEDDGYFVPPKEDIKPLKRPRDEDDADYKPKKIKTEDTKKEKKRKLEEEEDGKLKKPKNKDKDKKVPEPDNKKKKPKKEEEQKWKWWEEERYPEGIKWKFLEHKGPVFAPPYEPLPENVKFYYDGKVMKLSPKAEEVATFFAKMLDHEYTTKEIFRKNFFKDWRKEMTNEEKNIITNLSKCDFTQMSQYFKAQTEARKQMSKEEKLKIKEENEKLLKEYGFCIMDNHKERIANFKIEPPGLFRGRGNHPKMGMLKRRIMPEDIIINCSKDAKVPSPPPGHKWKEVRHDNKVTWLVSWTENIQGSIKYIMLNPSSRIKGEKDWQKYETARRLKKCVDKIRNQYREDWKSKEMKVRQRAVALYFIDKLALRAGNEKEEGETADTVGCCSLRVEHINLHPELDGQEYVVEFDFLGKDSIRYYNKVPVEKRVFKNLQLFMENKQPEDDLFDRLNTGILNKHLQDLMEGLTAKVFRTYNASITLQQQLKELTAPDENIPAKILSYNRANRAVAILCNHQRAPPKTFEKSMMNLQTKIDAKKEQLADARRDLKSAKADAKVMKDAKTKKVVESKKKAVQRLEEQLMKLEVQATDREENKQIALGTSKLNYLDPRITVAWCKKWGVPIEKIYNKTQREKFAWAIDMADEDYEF
method_description: Inhibition of human recombinant topoisomerase 1 expressed in baculovirus-infected insect cells assessed as inhibition of DNA relaxation at 10 uM incubated for 30 mins by ethidium bromide staining based agarose gel electrophoresis method
A number alone suffices; assume %.

Some compounds with recorded inhibition:
In [3]: df
Out[3]:
                             record_smiles  measured_endpoint  unit_abbreviation  observed_value
0   NCCCNc1nc2ccccc2c2c(=O)c3cc(F)ccc3sc12         inhibition                  %             100
1   Cc1ccc2sc3c(NCCCN)nc4ccccc4c3c(=O)c2c1         inhibition                  %             100
2  NCCCNc1nc2ccccc2c2c(=O)c3cccc(Cl)c3sc12         inhibition                  %             100
3  COc1ccc2sc3c(NCCCN)nc4ccccc4c3c(=O)c2c1         inhibition                  %             100

[Q] Please look at this compound and report its inhibition: NCCNc1nc2ccccc2c2c(=O)c3cc(F)cc(Cl)c3sc12
[A] 100

----------
Catalogue of pIC50 readings, one per entry.
Test system: MCF7
method_description: Anticancer activity against human MCF7 cells assessed as inhibition of cell proliferation measured after 72 hrs by MTT assay
Type: functional, cell-based
experimental_context: MCF7, 72 h
FYI, pIC50 means -log10 of a concentration in mol per litre.

Some compounds with recorded pIC50:
>>> df
                              record_smiles  measured_endpoint  observed_value
0   NCCCNc1nc2ccccc2c2c(=O)c3cc(Cl)ccc3sc12              pIC50            5.36
1  NCCNc1nc2ccccc2c2c(=O)c3cc(F)cc(Cl)c3sc12              pIC50            6.10
2    NCCCNc1nc2ccccc2c2c(=O)c3cc(F)ccc3sc12              pIC50            5.40

Next item in the queue.
[Q] Please report the measured pIC50 for NCCCNc1nc2ccccc2c2c(=O)c3cccc(Cl)c3sc12 tested on MCF7.
[A] 5.35

----------
method_description: Cytotoxicity against human MDA-MB-231 cells assessed as reduction in cell viability at 10 uM after 72 hrs by MTT assay relative to control
Assay type: cell-based
experimental_context: read-out: INH
Catalogue of cytotoxicity at 72 h, 10 µM readings, one per entry.
A number alone suffices; assume %.

>>> print(df.to_string())
                              record_smiles            measured_endpoint  unit_abbreviation  observed_value
0  COc1cccc2c(=O)c3c(sc12)c(NCc1ccccc1)nc1ccccc13  cytotoxicity at 72 h, 10 µM                  %              21
1  Cc1ccc2sc3c(NCc4ccccc4)nc4ccccc4c3c(=O)c2c1  cytotoxicity at 72 h, 10 µM                  %              21
2    CCCNc1nc2ccccc2c2c(=O)c3cc(Cl)ccc3sc12  cytotoxicity at 72 h, 10 µM                  %              21
3  CCNc1nc2ccccc2c2c(=O)c3cc(F)cc(Cl)c3sc12  cytotoxicity at 72 h, 10 µM                  %              21
4     CCNc1nc2ccccc2c2c(=O)c3cccc(OC)c3sc12  cytotoxicity at 72 h, 10 µM                  %              21
5  O=c1c2cc(F)ccc2sc2c(NCc3ccccc3)nc3ccccc3c12  cytotoxicity at 72 h, 10 µM                  %              21
6      CCNc1nc2ccccc2c2c(=O)c3cc(C)ccc3sc12  cytotoxicity at 72 h, 10 µM                  %              21
7     CCCNc1nc2ccccc2c2c(=O)c3cc(F)ccc3sc12  cytotoxicity at 72 h, 10 µM                  %              21

[Q] Please look at this compound and report its cytotoxicity at 72 h, 10 µM: O=c1c2cc(F)ccc2sc2c(NCc3cccnc3)nc3ccccc3c12
[A] 21

[Q] Please look at this compound and report its cytotoxicity at 72 h, 10 µM: COc1ccc(CNc2nc3ccccc3c3c(=O)c4cc(Cl)ccc4sc23)cc1
[A] 21

----------
Catalogue of pIC50 readings, one per entry.
System: MDA-MB-468
method_description: Anticancer activity against human MDA-MB-468 cells assessed as inhibition of cell proliferation measured after 72 hrs by MTT assay
Assay type: functional, cell-based
experimental_context: MDA-MB-468, 72 h
FYI, pIC50 means -log10 of a concentration in mol per litre.

>>> df
                            record_smiles  observed_value
0  Cc1ccc2sc3c(NCCCN)nc4ccccc4c3c(=O)c2c1            5.54

[Q] Please look at this compound and report its pIC50: NCCNc1nc2ccccc2c2c(=O)c3cc(F)cc(Cl)c3sc12
[A] 6.66

[Q] Please look at this compound and report its pIC50: NCCCNc1nc2ccccc2c2c(=O)c3cccc(Cl)c3sc12
[A] 6.57

[Q] Please look at this compound and report its pIC50: NCCCNc1nc2ccccc2c2c(=O)c3cc(Cl)ccc3sc12
[A] 5.96

[Q] Please look at this compound and report its pIC50: COc1ccc2sc3c(NCCCN)nc4ccccc4c3c(=O)c2c1
[A] 5.52

[Q] Please look at this compound and report its pIC50: NCCCNc1nc2ccccc2c2c(=O)c3cc(F)ccc3sc12
[A] 5.91

----------
System: NCI-H1299
method_description: Anticancer activity against human H1299 cells assessed as inhibition of cell proliferation measured after 72 hrs by MTT assay
Assay type: functional, cell-based
experimental_context: NCI-H1299, 72 h
Catalogue of IC50 readings, one per entry.
A number alone suffices; assume µM.

[Q] Please report the measured IC50 for NCCCNc1nc2ccccc2c2c(=O)c3cc(Cl)ccc3sc12 tested on NCI-H1299.
[A] 4.73

[Q] Please report the measured IC50 for NCCNc1nc2ccccc2c2c(=O)c3cc(F)cc(Cl)c3sc12 tested on NCI-H1299.
[A] 0.53

[Q] Please report the measured IC50 for NCCCNc1nc2ccccc2c2c(=O)c3cccc(Cl)c3sc12 tested on NCI-H1299.
[A] 3.69

[Q] Please report the measured IC50 for NCCCNc1nc2ccccc2c2c(=O)c3cc(F)ccc3sc12 tested on NCI-H1299.
[A] 3.02
